Consider the following compounds and their measured Ratio IC50 readings.
- Species on record: Homo sapiens
- measurement description: Selectivity index, ratio of IC50 for inhibition of human MAO-A to IC50 for inhibition of human MAO-B

The compound COc1cc(S)c(/N=N/c2ccc(C#N)c(C#N)c2)cc1OC showed Ratio IC50 equal to 75.2

The compound CC(=O)Oc1ccc(-c2ccccc2)cc1/N=N/c1ccc(C#N)c(C#N)c1 showed Ratio IC50 equal to > 26.2

The compound COc1ccc(/N=N/c2ccc(C#N)c(C#N)c2)cc1-c1ccccc1 showed Ratio IC50 equal to 0.62

The compound N#Cc1ccc(/N=N/c2cc(-c3ccccc3)ccc2O)cc1C#N showed Ratio IC50 equal to 42

The compound COc1cc(S)c(/N=N/c2cccc(C#N)c2C#N)cc1OC showed Ratio IC50 equal to 0.22

The compound N#Cc1ccc(/N=N/c2ccc(O)c(-c3ccccc3)c2)cc1C#N showed Ratio IC50 equal to 0.69

###

- test system: UniProtKB P21397
- Sequence (P21397 whole entry): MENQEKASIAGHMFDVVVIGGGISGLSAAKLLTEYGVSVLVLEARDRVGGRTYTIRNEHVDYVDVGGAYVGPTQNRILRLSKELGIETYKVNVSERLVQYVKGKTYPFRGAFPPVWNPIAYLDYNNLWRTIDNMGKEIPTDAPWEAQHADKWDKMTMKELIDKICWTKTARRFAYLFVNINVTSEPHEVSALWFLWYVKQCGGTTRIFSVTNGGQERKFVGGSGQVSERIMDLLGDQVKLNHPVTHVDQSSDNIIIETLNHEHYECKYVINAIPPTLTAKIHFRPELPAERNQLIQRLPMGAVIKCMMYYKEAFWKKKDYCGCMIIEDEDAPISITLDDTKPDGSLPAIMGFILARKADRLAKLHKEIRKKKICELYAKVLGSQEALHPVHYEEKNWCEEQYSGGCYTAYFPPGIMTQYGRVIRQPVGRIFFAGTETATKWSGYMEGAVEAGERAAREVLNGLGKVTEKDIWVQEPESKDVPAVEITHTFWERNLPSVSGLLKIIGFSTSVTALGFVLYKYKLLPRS
- measurement description: Inhibition of human MAO-A assessed as inhibition of H2O2 production using p-tyramine as substrate
Note to self: IC50 under 0.9 µM means met, ties and anything higher get not met.

1. N#Cc1ccc(/N=N/c2cc(-c3ccccc3)ccc2O)cc1C#N | not met
2. COc1cc(S)c(/N=N/c2ccc(C#N)c(C#N)c2)cc1OC | not met
3. N#Cc1ccc(/N=N/c2ccc(O)c(-c3ccccc3)c2)cc1C#N | met

Continue with the molecule presented below.
Dear reviewer, please state whether COc1cc(S)c(/N=N/c2cccc(C#N)c2C#N)cc1OC has IC50 strictly beneath 0.9 µM.
not met

###

- test system: Amine oxidase [flavin-containing] B (Homo sapiens, UniProt P27338)
- Sequence (P27338 whole entry): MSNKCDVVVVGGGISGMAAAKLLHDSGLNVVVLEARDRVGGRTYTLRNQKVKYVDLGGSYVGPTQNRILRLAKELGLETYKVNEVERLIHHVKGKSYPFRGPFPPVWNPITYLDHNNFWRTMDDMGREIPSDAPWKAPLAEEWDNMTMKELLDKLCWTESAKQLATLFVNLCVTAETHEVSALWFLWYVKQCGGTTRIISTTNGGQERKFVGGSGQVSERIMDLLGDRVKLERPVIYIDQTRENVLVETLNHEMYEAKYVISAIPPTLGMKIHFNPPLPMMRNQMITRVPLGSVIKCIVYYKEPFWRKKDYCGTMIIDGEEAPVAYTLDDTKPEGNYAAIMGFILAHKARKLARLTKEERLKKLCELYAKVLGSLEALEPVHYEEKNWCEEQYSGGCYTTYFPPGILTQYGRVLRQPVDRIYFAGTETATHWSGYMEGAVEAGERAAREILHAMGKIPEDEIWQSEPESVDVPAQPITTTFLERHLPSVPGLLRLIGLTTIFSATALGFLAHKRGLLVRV
- measurement description: Inhibition of human MAO-B assessed as inhibition of H2O2 production using p-tyramine as substrate
parameter measured: pIC50
Please keep in mind that pIC50 is minus log10 of the molar concentration; only the number is needed.

Take a look at these entries with their results.
1. COc1cc(S)c(/N=N/c2ccc(C#N)c(C#N)c2)cc1OC | 6.13
2. CC(=O)Oc1ccc(-c2ccccc2)cc1/N=N/c1ccc(C#N)c(C#N)c1 | 5.42
3. COc1cc(S)c(/N=N/c2cccc(C#N)c2C#N)cc1OC | 4.10
4. COc1ccc(/N=N/c2ccc(C#N)c(C#N)c2)cc1-c1ccccc1 | 5.84
5. N#Cc1ccc(/N=N/c2cc(-c3ccccc3)ccc2O)cc1C#N | 6.15

Next up:
Bench note, Amine oxidase [flavin-containing] B (Homo sapiens, UniProt P27338): N#Cc1ccc(/N=N/c2ccc(O)c(-c3ccccc3)c2)cc1C#N , pIC50 reads 5.95
